Can you tell me pIC50 for the items I'm about to list?
# measured_on: Pim-1 stably transfected into the U2OS human osteogenic sarcoma line (Homo sapiens)
# Construct: expressed in transfected cells; host or cells: U2OS human osteogenic sarcoma line
# Sequence (P11309 whole entry): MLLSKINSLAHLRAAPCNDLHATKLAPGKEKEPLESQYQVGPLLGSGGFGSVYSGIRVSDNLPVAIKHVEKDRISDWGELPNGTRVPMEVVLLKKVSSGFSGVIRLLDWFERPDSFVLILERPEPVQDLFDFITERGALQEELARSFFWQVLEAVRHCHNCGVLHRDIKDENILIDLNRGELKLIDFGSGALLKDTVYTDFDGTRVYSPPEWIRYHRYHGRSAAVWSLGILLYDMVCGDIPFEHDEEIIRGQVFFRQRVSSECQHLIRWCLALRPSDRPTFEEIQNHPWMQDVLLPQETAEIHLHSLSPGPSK
# test_protocol: Pim cell assay, phospho-BAD normalized against total BAD, U2OS stably transfected with Pim-1
# Assay type: cell-based
# condition_parameters: U2OS stably transfected with Pim-1; phospho-BAD normalized against total BAD; 29 min incubation; read-out: Pim1_Cell_IC50_
Units for pIC50: none; it is -log10 of a concentration expressed in mol/L.

Query :: Report pIC50 for CC(C)Oc1ccc(-c2ccc3[nH]cc(-c4cncc(O[C@@H]5CCCNC5)n4)c3c2)cc1 [Example 324] please.
Result :: 6.02

Query :: What about this compound? NC1CCN(c2cncc(-c3n[nH]c4ccc(-c5cncc(C6CC6)n5)cc34)n2)CC1 [Example 503]
Result :: 7.12

Query :: Same for FCCOc1cncc(-c2n[nH]c3ccc(-c4cncc(C5CC5)n4)cc23)n1 [Example 384]
Result :: 6.68

Query :: Here is the next compound: Brc1ccc2[nH]nc(-c3cncc(O[C@@H]4CNCCC45CC5)n3)c2c1 [Example 421]
Result :: 5.94

* * *

# measured_on: full length recombinant Pim-1 protein (Homo sapiens, UniProt P11309)
# Construct: by full length recombinant Pim-1, Pim-2, or Pim-3 protein; hexahistidine tag followed by a thrombin cleavage site (N); made in house; host or cells: Sf9 (baculovirus) or E. coli (pET28)
# Sequence (P11309 whole entry): as above
# test_protocol: Pim-1 enzyme assay (HTRF, phosphorylation of biotinylated-BAD (S112) peptide)
# Format: biochemical
# condition_parameters: read-out: Pim_1_IC50
Field: IC50. Provide a value for each of the compounds that follow.
Answer format: numeric, nM implied, no suffix.

Query :: Quick one: IC50 for CN(C)c1cnc(-c2ccc3[nH]cc(-c4cncc(O[C@@H]5CCCNC5)n4)c3c2)cn1 [Example 319] ?
Result :: 24

Query :: Cool, now N#Cc1ccc2[nH]cc(-c3cncc(N[C@@H]4CCCNC4)n3)c2c1 [Example 536]
Result :: 30

Query :: Entry CC[C@H]1CCNC[C@@H]1Oc1cncc(-c2n[nH]c3ccc(-c4c(F)cccc4F)cc23)n1 [Example 398] please
Result :: 9

* * *

# measured_on: full length recombinant Pim-1 protein (Homo sapiens)
# Construct: by full length recombinant Pim-1, Pim-2, or Pim-3 protein; hexahistidine tag followed by a thrombin cleavage site (N); made in house; host or cells: Sf9 (baculovirus) or E. coli (pET28)
# test_protocol: Pim-1 enzyme assay (HTRF, phosphorylation of biotinylated-BAD (S112) peptide)
# Type: biochemical
# condition_parameters: read-out: Pim_1_IC50
parameter_measured: pIC50
Note on pIC50: it is the negative log10 of concentration, concentration in mol/L.

Query :: Name the reported pIC50 value associated with the compound CN(C)C(=O)c1ccc2[nH]nc(-c3ccnc(N[C@@H]4CCCNC4)n3)c2c1
Result :: 6.35

Query :: Can you handle CC(C)OC(=O)c1ccc2[nH]nc(-c3cncc(N[C@@H]4CCCNC4)n3)c2c1 next?
Result :: 8.70

Query :: Another: CNC(=O)c1ccc2[nH]nc(-c3cncc(O[C@@H]4CCCNC4)n3)c2c1
Result :: 6.74

Query :: And the next one, c1cc2[nH]nc(-c3cncc(O[C@H]4CNCCC45CC5)n3)c2cc1C1CCOCC1 ?
Result :: 8.22

Query :: Check Oc1cncc(-c2n[nH]c3ccc(-c4ccccc4F)cc23)n1 too.
Result :: 6.49

Query :: Also check COC(=O)c1ccc2[nH]nc(-c3cncc(N4CCC(N)CC4)n3)c2c1
Result :: 8.70

Query :: Here is the next compound: c1cc2[nH]nc(-c3cncc(OC4CCNCC45CC5)n3)c2cc1-c1cncc(C2CC2)n1 (stereo not shown)
Result :: 9.00

Query :: Now try Cc1ccn(-c2cccc(-c3ccc4[nH]cc(-c5cncc(O[C@@H]6CCCNC6)n5)c4c3)n2)n1 .
Result :: 8.22

Query :: What do you get for NC1CCN(c2cncc(-c3c[nH]c4ccc(-c5cncc(C6CC6)n5)cc34)n2)CC1 ?
Result :: 8.70

Query :: Same thing, different compound: Cc1ccc(C(=O)NC2CCC2)cc1-c1ccc2[nH]cc(-c3cncc(O[C@@H]4CCCNC4)n3)c2c1
Result :: 6.54

Query :: Next record, please: CC1CNCC(Oc2cncc(-c3n[nH]c4ccc(-c5c(F)cccc5F)cc34)n2)C1 (single isomer, unassigned) [Example 468]
Result :: 7.15

Query :: Another compound to check: COC(=O)c1ccc2[nH]nc(-c3ccnc(NC4CCNCC4)n3)c2c1
Result :: 8.70

Query :: Note, next up: COc1cc(-c2c[nH]c3ccc(-c4c(F)cccc4F)cc23)nc(N[C@@H]2CCCNC2)n1
Result :: 6.25

Query :: Also need CC(C)Nc1nc(-c2c[nH]c3ccc(-c4cncc(C5CC5)n4)cc23)cc(=O)[nH]1 , thanks.
Result :: 8.22

Query :: One more compound: O=C1COCCN1c1ccc2[nH]nc(-c3cncc(O[C@H]4CNCCC45CC5)n3)c2c1
Result :: 6.80

Query :: One more compound: CC(C)n1cc(-c2ccc3[nH]cc(-c4cncc(O[C@@H]5CCCNC5)n4)c3c2)cn1
Result :: 8.10

* * *

# measured_on: full length recombinant Pim-3 protein (Homo sapiens, UniProt Q86V86)
# Construct: by full length recombinant Pim-1, Pim-2, or Pim-3 protein
# test_protocol: Pim-3 enzyme assay (HTRF, phosphorylation of biotinylated-BAD (S112) peptide)
# condition_parameters: read-out: Pim3 IC50
parameter_measured: log10 of IC50 (log10 of the value in µM)
Kindly note that the scale is log10 and the underlying IC50 is in µM.

Query :: Which measured log10 of IC50 value corresponds to N#Cc1ccc2c(-c3ccc4[nH]nc(-c5cncc(N6CCC(N)CC6)n5)c4c3)ccnc2c1 [Example 112] ?
Result :: -0.94

Query :: Try this molecule too: CC(C)NC(=O)c1ccc2[nH]cc(-c3cncc(N4CCC(N)CC4)n3)c2c1 [Example 239]
Result :: -0.46

Query :: Continue with NC1CCN(c2cncc(-c3n[nH]c4ccc(-c5cc6ccccc6nc5Cl)cc34)n2)CC1 [Example 48]
Result :: -1.57

Query :: Now consider CC(C)Oc1cccc(-c2ccc3[nH]nc(-c4cncc(O[C@@H]5CCCNC5)n4)c3c2)c1 [Example 146] .
Result :: -1.51

Query :: How about CS(=O)(=O)c1ccc(-c2ccc3[nH]nc(-c4cncc(N5CCC(N)CC5)n4)c3c2)cc1 [Example 59] ?
Result :: -1.96

Query :: // same read-out, input: CC(C)Oc1cccc(-c2ccc3[nH]nc(-c4cncc(O[C@@H]5CCCNC5)n4)c3c2)n1 [Example 144]
Result :: -1.59

Query :: Same read-out for c1cnnc(-c2ccc3[nH]nc(-c4cncc(O[C@@H]5CCCNC5)n4)c3c2)c1 [Example 149] ?
Result :: -2.15

Query :: Then what about the molecule NC1CCN(c2cncc(-c3n[nH]c4ccc(-c5cc(C(=O)NC6CC6)ccc5F)cc34)n2)CC1 [Example 3] ?
Result :: -2.05

* * *

Kindly supply the reported IC50 values for the records listed here.
# measured_on: full length recombinant Pim-1 protein (Homo sapiens, UniProt P11309)
# Construct: by full length recombinant Pim-1, Pim-2, or Pim-3 protein; hexahistidine tag followed by a thrombin cleavage site (N); made in house; host or cells: Sf9 (baculovirus) or E. coli (pET28)
# test_protocol: Pim-1 enzyme assay (HTRF, phosphorylation of biotinylated-BAD (S112) peptide)
# Format: biochemical
# condition_parameters: enzyme assay, Pim-1; read-out: Pim_1_IC50
Give the value, in units of nM, as a plain number.

Query :: IC50 lookup needed for c1cc2[nH]nc(-c3cncc(O[C@@H]4CCCNC4)n3)c2cc1C1CCOCC1 , thanks.
Result :: 27

Query :: Repeat for the following compound: NC1CCN(c2cncc(-c3n[nH]c4ccc(-c5cnc6ccccc6c5)cc34)n2)CC1
Result :: 1

Query :: And CN1CCOc2cc(-c3ccc4[nH]nc(-c5cncc(O[C@@H]6CCCNC6)n5)c4c3)cnc21 ?
Result :: 7

Query :: Nc1ccc(OC(F)(F)F)c(-c2ccc3[nH]nc(-c4cncc(N5CCC(N)CC5)n4)c3c2)c1 , same question.
Result :: 30

Query :: And the next one, NC1CCN(c2cncc(-c3n[nH]c4ccc(-c5ccc6scnc6c5)cc34)n2)CC1 ?
Result :: 2

Query :: What about CC(C)Oc1cncc(-c2ccc3[nH]nc(-c4cncc(O[C@@H]5CCCNC5)n4)c3c2)c1 ?
Result :: 3

Query :: Now consider NC1CCN(c2cncc(-c3n[nH]c4ccc(-c5cc6ccccc6nc5O)cc34)n2)CC1 .
Result :: 7

Query :: Could you do the same for NC1CCN(c2cncc(-c3n[nH]c4ccc(-c5cnc6[nH]nc(C(F)(F)F)c6c5)cc34)n2)CC1 , please?
Result :: 1

Query :: Now consider NC1CCN(c2cncc(-c3n[nH]c4ccc(-c5cc(=O)[nH]cc5Cl)cc34)n2)CC1 .
Result :: 14

Query :: Similarly, CCNc1cncc(-c2n[nH]c3ccc(-c4c(F)cccc4F)cc23)n1 ?
Result :: 76

Query :: Next entry: N[C@@H]1CCN(c2cncc(-c3c[nH]c4ccc(-c5c(F)cccc5F)cc34)n2)C1
Result :: 15

Query :: Next: Nc1cc(-c2ccc3[nH]nc(-c4cncc(N5CCC(N)CC5)n4)c3c2)ccn1
Result :: 1

Query :: Param item: CCOc1cccc(-c2ccc3[nH]nc(-c4cncc(N5CCC(N)CC5)n4)c3c2)n1
Result :: 13

Query :: Same for NC1CCN(c2cncc(-c3n[nH]c4ccc(-c5ccccn5)cc34)n2)CC1
Result :: 48

Query :: Further, for N#Cc1ccccc1-c1ccc2[nH]nc(-c3cncc(N4CCC(N)CC4)n3)c2c1 ?
Result :: 5

Query :: Then this compound: COc1cncc(-c2ccc3[nH]nc(-c4ccnc(N5CCC(N)CC5)n4)c3c2)c1
Result :: 1

Query :: Try the compound Brc1ccc2[nH]nc(-c3cncc(O[C@@H]4CCCNC4)n3)c2c1
Result :: 83
